B1: HDV Ribozyme (parent)
chain: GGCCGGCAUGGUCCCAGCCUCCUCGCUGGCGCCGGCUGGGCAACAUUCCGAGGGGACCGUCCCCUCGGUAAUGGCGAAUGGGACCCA

- Variants of: B1
- MEASUREMENT_NOTES: self-cleavage, relative activity (ratio to wild type); higher = more cleavage; co-transcriptional
Values of self-cleavage greater than or equal to 0.4 map to Satisfied; values below map to Not satisfied.

MACROMOLECULE_SEQUENCE: GGCCGGCAUGGUCCCAGCCGCCUCGAUGGCGCCGGCUGGGCAACAUUCCGAGGGGACCGUCCCCUCGGUAAUGGCGAAUGGGACCCA
ASSIGNED_CATEGORY: Not satisfied

MACROMOLECULE_SEQUENCE: GGCCUGCAUGGUCCCAGCGUCCUCGCUGGCGCCGGCUGGGCAACAUUCCGAGGGGACCGUCCCCUCGGUAAUGGCGAAUGGGACCCA
ASSIGNED_CATEGORY: Not satisfied

MACROMOLECULE_SEQUENCE: GGCCGGCAUGGUCCCAGCCUCCUCGCUGGCGCCGGCUGGGCAACAUUCCCAGGGGACCGUCCCCUCUGUAAUGGCGAAUGGGACCCA
ASSIGNED_CATEGORY: Satisfied

MACROMOLECULE_SEQUENCE: GGCCGGCAUGGUCCCAGCCUCCUCGCUGGCGCCUGCUGGGCAACAUUCCGAGGGGACCGUCCCCUCGGUAAUCGCGAAUGGGACCCA
ASSIGNED_CATEGORY: Not satisfied

MACROMOLECULE_SEQUENCE: GGCCGGCAUGGUCCCAGCCUCCGCGCUGGCGCCGGCUGGGCAACAUACCGAGGGGACCGUCCCCUCGGUAAUGGCGAAUGGGACCCA
ASSIGNED_CATEGORY: Satisfied

MACROMOLECULE_SEQUENCE: GGCCGGCCUGGUCCCAGCCUCCUCGCUGGCGCCGGCUGGGCAACAUUCCGAGGGGACCGUCCCCACGGUAAUGGCGAAUGGGACCCA
ASSIGNED_CATEGORY: Satisfied

MACROMOLECULE_SEQUENCE: GGCCGGCAUGGUCCCAGCCUCCUCGCUGGCGCCGGCUGGGCAACAUUCCGAGGGGACCGUCCACUCGGUAAUGGCGAAUGGUACCCA
ASSIGNED_CATEGORY: Satisfied

MACROMOLECULE_SEQUENCE: GGCUGGCAUGGUCCCAGCCUCCUCGCUGGCGCCGGCUGGGCAACAUUCCGAGGGGACCGUCGCCUCGGUAAUGGCGAAUGGGACCCA
ASSIGNED_CATEGORY: Not satisfied

MACROMOLECULE_SEQUENCE: GUCCGGCAUGGUCCCAGCCUCCUCGCUGGCGCCGGCUGGGCAACAUUCCGAGGGGACCGUCCCCUCAGUAAUGGCGAAUGGGACCCA
ASSIGNED_CATEGORY: Not satisfied

MACROMOLECULE_SEQUENCE: GGCCGCCAUUGUCCCAGCCUCCUCGCUGGCGCCGGCUGGGCAACAUUCCGAGGGGACCGUCCCCUCGGUAAUGGCGAAUGGGACCCA
ASSIGNED_CATEGORY: Not satisfied

MACROMOLECULE_SEQUENCE: GGCCGGCAUGGUCCCAGCCUCCUCGCUGGCGCCGGCUGGGCAAUAUUCCGAGGAGACCGUCCCCUCGGUAAUGGCGAAUGGGACCCA
ASSIGNED_CATEGORY: Satisfied

MACROMOLECULE_SEQUENCE: GGCCGGCAUGGUCCCAGCCUCCUCGCUGGCGCCGGCUGGGCAACAUUCGGAGGGGACCGUCCCCUCGGUAAUGGCGUAUGGGACCCA
ASSIGNED_CATEGORY: Satisfied

MACROMOLECULE_SEQUENCE: GGCCGGCAUGGUCCCAGCCUCCUCGCAGGCGCCGGCUGGGCAACAUUCCGAGGGGACCGUCCCCUCGGUAAUGGCGAACGGGACCCA
ASSIGNED_CATEGORY: Not satisfied

MACROMOLECULE_SEQUENCE: GGCCGGCAUGGUCCCAGCCUCCUCGCUGGCGCCGGCUGGGCAACAUUCCGAGGGGACCGUCCCCUCGGUAAUGGCGAAUGGAACCCU
ASSIGNED_CATEGORY: Satisfied

MACROMOLECULE_SEQUENCE: GGCCGGCAUGGUCCCAGCCUCCUCGCUGGCGCCGCCUGGGCAACAUUCCGAGGGGACCUUCCCCUCGGUAAUGGCGAAUGGGACCCA
ASSIGNED_CATEGORY: Not satisfied

MACROMOLECULE_SEQUENCE: GGCCGGCAUGGUUCCAGCCUCCUCGCUGGCGCCGGCUGGGCAACAUUCCGAGGGGAGCGUCCCCUCGGUAAUGGCGAAUGGGACCCA
ASSIGNED_CATEGORY: Satisfied

MACROMOLECULE_SEQUENCE: GGCCGGCAUGGUCCCAGCCUCCUCGCUGGCGCCGGCUGGGCAACAUUCCGAGCGGACCGUCCCCUCGGUAAUAGCGAAUGGGACCCA
ASSIGNED_CATEGORY: Satisfied

MACROMOLECULE_SEQUENCE: GGCCGGCAUGGUCCCAGCUUCCUCGCUGGCGCCGGCUGGGCAACAUUCCGACGGGACCGUCCCCUCGGUAAUGGCGAAUGGGACCCA
ASSIGNED_CATEGORY: Not satisfied

MACROMOLECULE_SEQUENCE: GGCCGGCAUGGUCCCAUCCUCCUCGCUGGCGCCGGCUGGGCAACAUUCCGAGGGGACCGUCCCCUCGGUAAUGUCGAAUGGGACCCA
ASSIGNED_CATEGORY: Not satisfied

Source listed as the RNAGym collection of RNA variant scans (doi:10.7554/elife.80360).
